Parameter: IC50. Scope: all listed entries.
Target: cellular PARG (Homo sapiens, UniProt Q86W56)
Construct: endogenous in cells
Sequence (Q86W56 whole entry): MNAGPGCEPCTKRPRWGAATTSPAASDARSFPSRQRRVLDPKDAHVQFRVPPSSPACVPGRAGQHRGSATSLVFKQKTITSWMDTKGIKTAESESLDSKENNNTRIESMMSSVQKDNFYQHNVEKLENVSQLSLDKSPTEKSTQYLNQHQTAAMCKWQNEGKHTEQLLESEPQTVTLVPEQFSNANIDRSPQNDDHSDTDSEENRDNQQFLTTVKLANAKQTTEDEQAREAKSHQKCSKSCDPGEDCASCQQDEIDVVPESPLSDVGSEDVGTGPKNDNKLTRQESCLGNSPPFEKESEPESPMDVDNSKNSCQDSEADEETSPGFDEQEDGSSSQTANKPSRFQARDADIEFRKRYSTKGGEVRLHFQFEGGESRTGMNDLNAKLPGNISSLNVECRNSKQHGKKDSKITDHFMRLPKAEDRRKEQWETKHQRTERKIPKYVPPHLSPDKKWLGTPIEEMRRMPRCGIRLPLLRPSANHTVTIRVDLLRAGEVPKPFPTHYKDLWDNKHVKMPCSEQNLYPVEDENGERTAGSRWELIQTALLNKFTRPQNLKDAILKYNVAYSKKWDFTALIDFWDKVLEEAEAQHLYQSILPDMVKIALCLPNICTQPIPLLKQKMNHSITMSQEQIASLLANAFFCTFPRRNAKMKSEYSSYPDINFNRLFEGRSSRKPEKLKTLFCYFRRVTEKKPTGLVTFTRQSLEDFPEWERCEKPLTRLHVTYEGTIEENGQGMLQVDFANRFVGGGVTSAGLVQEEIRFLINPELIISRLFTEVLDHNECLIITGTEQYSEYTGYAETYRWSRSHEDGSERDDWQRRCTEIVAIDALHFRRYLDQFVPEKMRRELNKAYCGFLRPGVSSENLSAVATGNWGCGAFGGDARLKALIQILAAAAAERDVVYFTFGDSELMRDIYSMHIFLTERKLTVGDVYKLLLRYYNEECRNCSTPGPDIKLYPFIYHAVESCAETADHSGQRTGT
Assay: Nuclear PAR accumulation assay (immunofluorescence high-content imaging, MMS-treated HeLa cells)
Details: 1 hour compound then MMS 50 μg/mL for an additional hour

- molecule: "CN1CCC[C@H]1[C@@H]1CN=C2N(Cc3cnn(C)c3)C(=O)c3cc(S(=O)(=O)NC4(C)CC4)ccc3N21"
  result: "< 100 nM"

Record Cc1cc([C@@H]2CN=C3N(Cc4cnn(C)c4)C(=O)c4cc(S(=O)(=O)NC5(C)CC5)ccc4N32)on1 : what is its IC50 with cellular PARG (Homo sapiens, UniProt Q86W56)?
< 100 nM

Could you share what IC50 was measured for CN1CC=C(c2cc(S(=O)(=O)NC3(C)CC3)cc3c2N2CC(C)(C)N=C2N(Cc2cnn(C)c2)C3=O)CC1 , tested on cellular PARG (Homo sapiens, UniProt Q86W56)?
< 100 nM

Lab note: need IC50 for CN1C(=O)c2cc(S(=O)(=O)NC3(C)CC3)ccc2N2C1=NCC2C#Cc1cnn2c1OCC1(COC1)C2 (stereo not drawn) on cellular PARG (Homo sapiens, UniProt Q86W56), anyone have it?
100 to 1000 nM

Give the reported IC50 for Cn1cc(CN2C(=O)c3cc(S(=O)(=O)NC4(C)CC4)ccc3N3C2=NCC3COc2ccccc2C#N)cn1 (stereo not drawn) (system: cellular PARG (Homo sapiens, UniProt Q86W56)).
100 to 1000 nM

====

Biological target: cellular PARG (Homo sapiens, UniProt Q86W56)
Construct: endogenous in cells
Assay: Nuclear PAR accumulation assay (immunofluorescence high-content imaging, MMS-treated HeLa cells)
Conditions: 1 hour compound then MMS 50 μg/mL for an additional hour
pIC50: −log10 of the molar value.
observed-property: pIC50

# count of solved cases: 6
- compound: "C#C[C@@H]1CN=C2N(C)C(=O)c3cc(S(=O)(=O)NC4(C)CC4)cc(Br)c3N21 [Example 38]"
  pIC50: "> 7.00"
- compound: "CN1C(=O)c2cc(S(=O)(=O)NC3(C)CC3)ccc2N2C1=NCC2C#Cc1ccc2nccn2n1 (centres unmarked) [Example 176]"
  pIC50: "6.00 to 7.00"
- compound: "[2H]C([2H])(c1cnn(C)c1)N1C(=O)c2cc(S(=O)(=O)NC3(C)CC3)ccc2N2C1=NC[C@H]2C#Cc1cccc(N)n1 [Example 104]"
  pIC50: "> 7.00"
- compound: "C#C[C@@H]1CN=C2N(Cc3cnn(C)c3)C(=O)c3cc(S(=O)(=O)NC4(C)CC4)cc(C4=CCNCC4)c3N21 [Example 79]"
  pIC50: "6.00 to 7.00"
- compound: "Cn1cc(CN2C(=O)c3cc(S(=O)(=O)NC4(C)CC4)cc(Cl)c3N3C2=NC[C@H]3C#CCN)cn1 [Example 103]"
  pIC50: "6.00 to 7.00"
- compound: "[2H]C([2H])(c1cnn(C)c1)N1C(=O)c2cc(S(=O)(=O)NC3(C)CC3)ccc2N2C1=NC[C@H]2C#Cc1nccnc1OC [Example 249]"
  pIC50: "> 7.00"

Fill in the blank: the reported pIC50 of [2H]C([2H])(c1cnn(C)c1)N1C(=O)c2cc(S(=O)(=O)NC3(C)CC3)ccc2N2C1=NC[C@H]2C#Cc1cnn(C)n1 [Example 163] is ____.
> 7.00

Need pIC50 of Cn1cc(CN2C(=O)c3cc(S(=O)(=O)NC4(C)CC4)cc(C4=CCCC4)c3N3CCN=C23)cn1 [Example 26] , thanks.
6.00 to 7.00

For CCN1C(=O)c2cc(S(=O)(=O)NC3(C)CC3)c(F)cc2N2C1=N[C@H]1CCC[C@H]12 [Example 264] , what is its reported pIC50?
> 7.00

Which pIC50 is listed for Cc1cc(F)ccc1-c1cc(S(=O)(=O)NC2(C)CC2)cc2c1N1C(=NC[C@H]1C)N(Cc1cnn(C)c1)C2=O [Example 32] ?
> 7.00

Which measured pIC50 value corresponds to CN1C(=O)c2cc(S(=O)(=O)NC3(C)CC3)ccc2N2C1=NC[C@H]2C#Cc1cnn(C)c(=O)c1 [Example 199] ?
> 7.00

// lookup pIC50 for CN1CCN(C2(C#C[C@@H]3CN=C4N(C)C(=O)c5cc(S(=O)(=O)NC6(C)CC6)ccc5N43)CC2)CC1 [Example 229]
6.00 to 7.00

# query: pIC50 of entry [2H]C([2H])(c1cnn(C)c1)N1C(=O)c2cc(S(=O)(=O)NC3(C)CC3)ccc2N2C1=NC[C@H]2C#Cc1cnc(C)nc1 [Example 275]
> 7.00

What measured pIC50 goes with COCc1nocc1CN1C(=O)c2cc(S(=O)(=O)NC3(C)CC3)ccc2N2C1=NC[C@H]2C [Example 7] ?
6.00 to 7.00
